System: LAMPU (purple deadnettle)
method_notes: Pre-plant incorporated (PPI) herbicidal activity, cool season
Type: in vivo, Lamium purpureum
condition_details: weed, PPI application, 100 g/ha
Experimental: In another set of tests, the pre-plant incorporated (PPI) activity of compounds of this invention was evaluated on the same species as for the pre-emergence tests described above. […] A pre-prepared topsoil mixture (described above) was placed in a pot and compacted to a depth of 1.0 to 1.25 cm from the top of the pot. […] A sufficient quantity of soil to cover the seeds and level fill the pot was weighed into an open container. […]
Binary call on Percent inhibition LAMPU: satisfied from 70% upward, not satisfied beneath that.

# structure, classification
rows = [
    ("C=C(CC(F)(F)S(=O)(=O)c1ncn(C(=O)N(CC)CC)n1)C[Si](C)(C)C", "satisfied"),
    ("CCN(CC)C(=O)n1cnc(S(=O)(=O)C(F)(F)C(F)(F)Br)n1", "satisfied"),
    ("CCN(CC)C(=O)n1cnc(S(=O)(=O)C(F)(F)Cl)n1", "satisfied"),
    ("CCN(CC)C(=O)n1cnc(S(=O)(=O)C(F)(F)SC)n1", "not satisfied"),
    ("CCN(CC)C(=O)n1cnc(S(=O)(=O)C(F)(F)SCCOC)n1", "not satisfied"),
    ("CCN(CC)C(=O)n1cnc(S(=O)(=O)C(F)(F)SCC(=O)OC)n1", "not satisfied"),
    ("CCN(CC)C(=O)n1cnc(S(=O)(=O)C(F)(F)C(F)F)n1", "satisfied"),
]

###

System: SASKR (russian thistle)
method_notes: Pre-emergence herbicidal activity, cool season
Format: in vivo, Salsola kali
condition_details: lowest tested rate with 80% or greater inhibition; rates 300, 100, 30, 10 g/ha; about 14 days
Excerpt: Tables 5 to 8 summarize results of tests conducted as described below to determine the pre-emergence herbicidal activity, in the form of a GR80 value, of illustrative compounds of this invention. […] Compounds of the invention were typically applied at rates of 300, 100, 30, and 10 g/ha. […] Approximately 14 days after planting and treating, the plants were observed and herbicidal efficacy recorded as percent inhibition by comparison with untreated plants. […]
experimental_readout: Pre-emergence activity GR80, SASKR (g/ha)

# structure, experimental_readout, measured
records = [
    ("C=C(C)CC(F)(F)S(=O)(=O)c1ncn(C(=O)N(CC)CC)n1", "Pre-emergence activity GR80, SASKR", 300),
    ("CCN(CC)C(=O)n1cnc(S(=O)(=O)C(F)(F)c2ccccc2)n1", "Pre-emergence activity GR80, SASKR", 300),
    ("C=CCN(C)C(=O)n1cnc(S(=O)(=O)C(F)(F)Cl)n1", "Pre-emergence activity GR80, SASKR", 300),
]

###

Test system: STEME (common chickweed)
method_notes: Pre-emergence herbicidal activity, cool season
Type: in vivo, Stellaria media
condition_details: lowest tested rate with 80% or greater inhibition; rates 300, 100, 30, 10 g/ha; about 14 days
experimental_readout: Pre-emergence activity GR80, STEME (g/ha)

# structure, experimental_system, measured
data = [
    ("CCN(CC)C(=O)n1cnc(S(=O)(=O)C(F)(F)SCCOC)n1", "STEME (common chickweed)", 100),
    ("COCCN(C)C(=O)n1cnc(S(=O)(=O)C(F)(F)C(F)F)n1", "STEME (common chickweed)", 100),
    ("CON(C)C(=O)n1cnc(S(=O)(=O)C(F)(F)Br)n1", "STEME (common chickweed)", 300),
    ("CCN(CC)C(=O)n1cnc(S(=O)(=O)C(F)(F)F)n1", "STEME (common chickweed)", 10),
    ("CN(C(=O)n1cnc(S(=O)(=O)C(F)(F)C(F)(F)Br)n1)C1CCCCC1", "STEME (common chickweed)", 100),
    ("CCOC(=O)C(F)(F)S(=O)(=O)c1ncn(C(=O)N(CC)CC)n1", "STEME (common chickweed)", 30),
    ("CCCN(CC)C(=O)n1cnc(S(=O)(=O)C(F)(F)SCC)n1", "STEME (common chickweed)", 10),
    ("CCCN(CC)C(=O)n1cnc(S(=O)(=O)C(F)F)n1", "STEME (common chickweed)", 10),
    ("CN(C)C(=O)n1cnc(S(=O)(=O)C(F)(F)Cl)n1", "STEME (common chickweed)", 30),
    ("CN(C)C(=O)n1cnc(S(=O)(=O)C(F)(F)Br)n1", "STEME (common chickweed)", 300),
    ("COCCN(C)C(=O)n1cnc(S(=O)(=O)C(F)(F)Cl)n1", "STEME (common chickweed)", 10),
]
